Attribution: patent US20240139189A1

# LE (ligand efficiency) per record follows
- target_desc: METTL3 (Homo sapiens (Human))
- Sequence (Q86U44 whole entry, looked up): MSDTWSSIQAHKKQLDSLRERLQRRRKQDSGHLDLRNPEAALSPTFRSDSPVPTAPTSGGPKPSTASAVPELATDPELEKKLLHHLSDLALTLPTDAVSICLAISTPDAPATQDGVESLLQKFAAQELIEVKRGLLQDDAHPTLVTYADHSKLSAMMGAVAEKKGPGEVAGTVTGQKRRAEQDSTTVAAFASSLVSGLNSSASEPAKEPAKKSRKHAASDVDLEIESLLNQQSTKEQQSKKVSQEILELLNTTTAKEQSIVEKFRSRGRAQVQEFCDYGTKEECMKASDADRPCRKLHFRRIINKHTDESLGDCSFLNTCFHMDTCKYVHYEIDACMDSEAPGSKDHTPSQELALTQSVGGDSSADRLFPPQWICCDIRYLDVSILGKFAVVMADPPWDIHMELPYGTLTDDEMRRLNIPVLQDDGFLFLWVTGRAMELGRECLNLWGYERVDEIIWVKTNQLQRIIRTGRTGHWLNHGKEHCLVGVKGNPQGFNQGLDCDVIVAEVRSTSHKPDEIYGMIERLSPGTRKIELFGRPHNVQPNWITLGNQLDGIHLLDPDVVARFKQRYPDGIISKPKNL
- Sequence (Q9HCE5 whole entry partner, looked up): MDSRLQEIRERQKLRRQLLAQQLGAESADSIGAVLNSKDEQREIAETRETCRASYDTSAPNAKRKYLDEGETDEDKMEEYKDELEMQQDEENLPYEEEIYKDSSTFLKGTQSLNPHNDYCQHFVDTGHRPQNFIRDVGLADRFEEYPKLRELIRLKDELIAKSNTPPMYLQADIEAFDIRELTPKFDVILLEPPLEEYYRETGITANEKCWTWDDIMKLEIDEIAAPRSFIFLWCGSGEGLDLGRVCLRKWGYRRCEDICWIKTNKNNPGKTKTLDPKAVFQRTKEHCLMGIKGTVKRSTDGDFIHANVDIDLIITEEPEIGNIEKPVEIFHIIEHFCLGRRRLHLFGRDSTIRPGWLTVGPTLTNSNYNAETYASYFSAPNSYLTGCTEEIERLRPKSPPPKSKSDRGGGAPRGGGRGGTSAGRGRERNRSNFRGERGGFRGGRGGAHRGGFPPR
- procedure_details: TR-FRET biochemical assay (time resolved-Förster resonance energy transfer)

Example cases with answers are listed next.
INSERT INTO measurements (compound, endpoint_value) VALUES
  ('CC1(C)CCN(Cc2ccc(N3CC(=O)NC4(CCN(c5nc(Cl)nc6[nH]ccc56)CC4)C3)cc2)CC1', '0.28 kcal.mol^-1.heavy atom count^-1'),
  ('CC1(C)CCN(Cc2ccc(N3CC(=O)NC4(CCN(c5ccnc6[nH]ccc56)CC4)C3)cc2)CC1', '0.20 kcal.mol^-1.heavy atom count^-1'),
  ('CNc1cc(N2CCCC(O)(CNC(=O)c3ccc(CN4CCC(C)(C)CC4)cc3)C2)ncn1 (centres unmarked)', '0.21 kcal.mol^-1.heavy atom count^-1'),
  ('CNc1cc(N2CCC3(CC2)CN(c2ccc(CN4CCC(C)(C)CC4)cc2)C(=O)N3)ncn1', '0.23 kcal.mol^-1.heavy atom count^-1');

// next entry
LE (ligand efficiency) reported for this compound CNc1cc(N2CC3(CN(c4ccc(CN5CCC(C)(C)CC5)cc4)CC(=O)N3)C2)ncn1 : 0.26 kcal.mol^-1.heavy atom count^-1
